Target: T1, DLG3_2, Q92796
T1 sequence (Q92796 221-321, limits assumed, looked up): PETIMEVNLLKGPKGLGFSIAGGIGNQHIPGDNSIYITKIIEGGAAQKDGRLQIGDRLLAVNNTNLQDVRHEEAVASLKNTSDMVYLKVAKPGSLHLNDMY
Assay: holdup assay
Parameters: key: below the threshold = too weak to quantify, mostly under pKd 3.1 to 4
Conditions: plain residues with an end cap or a label only (N-terminal biotin on a linker: ado-ado)
readout_type: pKd
Answer with a number only.

Previously resolved entries follow.
[
  {
    "binder": "PRISRSQSEL [CCDC134, Q9H6E4]",
    "observed_value": 3.98
  },
  {
    "binder": "KKMPSIESDV [GRIN2A, Q12879]",
    "observed_value": 5.25
  },
  {
    "binder": "NLSIEKETKL [ASNSD1, Q9NWL6]",
    "observed_value": 4.24
  },
  {
    "binder": "GQEEQVTTRL [TRPC5, Q9UL62]",
    "observed_value": 3.97
  }
]

Attention now shifts to the item below.
State its pKd for this binder: KKAPTNEFYA [SDC4, P31431]
4.14

Hello, the source for this data is paper PMC9482650, in case you need it.
